- target system: GST-PSD95 PDZ domains 1, 2, 3 (Homo sapiens), P78352
- Sequence (P78352 62-395): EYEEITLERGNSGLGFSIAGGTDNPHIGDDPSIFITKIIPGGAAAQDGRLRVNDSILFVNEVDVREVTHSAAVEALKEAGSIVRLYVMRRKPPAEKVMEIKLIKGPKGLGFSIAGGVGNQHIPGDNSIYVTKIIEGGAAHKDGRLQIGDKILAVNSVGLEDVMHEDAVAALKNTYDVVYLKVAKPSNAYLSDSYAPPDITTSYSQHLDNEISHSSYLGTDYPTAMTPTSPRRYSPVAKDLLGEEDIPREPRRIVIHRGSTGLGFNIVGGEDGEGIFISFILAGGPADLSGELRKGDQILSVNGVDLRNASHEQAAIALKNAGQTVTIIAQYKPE
- protocol details: G' assay; also: key of the grades not given here
property name: Classification (A450 class)

binder	reported value
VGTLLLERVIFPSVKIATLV (modifications not checked) [AdenoE4 typ9]	5
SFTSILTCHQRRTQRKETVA (modifications not checked) [GluR5-2 (rat)]	5
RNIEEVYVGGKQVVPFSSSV (modifications not checked) [Nedasin (s-form)]	3
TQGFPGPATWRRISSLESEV (modifications not checked) [NMDA Glutamate Receptor 2C (cysteine-free)]	5
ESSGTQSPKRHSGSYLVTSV (modifications not checked) [APC-adenomatous polyposis coli protein]	5
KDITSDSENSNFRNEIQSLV (modifications not checked) [CD95]	1
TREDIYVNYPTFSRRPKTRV (modifications not checked) [DNAM-1]	2
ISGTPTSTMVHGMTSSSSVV (modifications not checked) [Clasp-2]	2
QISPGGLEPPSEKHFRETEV (modifications not checked) [TAX]	5
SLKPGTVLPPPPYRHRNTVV (modifications not checked) [ErbB-4 receptor]	1
HPTDITGLPNLSDPSVSTVV (modifications not checked) [NMDA R2C]	1
LHNQASVPLEPRPLRRESEI (modifications not checked) [Kir2.1 (inwardly rect. K+ channel)]	2
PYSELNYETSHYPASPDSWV (modifications not checked) [catenin - delta 2]	2
TFAAGFNSTGLPHSTTRV (modifications not checked) [Neuroligin]	2
GGGGGSGGGGGSGIESVKI (modifications not checked) [GLUR2 (glutamate receptor 2-modified)]	2
QDFRRAFRRILARPWTQTAW (modifications not checked) [alpha-2B Adrenergic receptor]	5
ARHRVTSYTSSSVNVSSNL (modifications not checked) [IL-8RA]	1
EDPKDRPSAAHIVEALETDV (modifications not checked) [PDZ-binding kinase (PBK)]	1
